Test system: DIV14
Assay: qHTS profiling for inhibitors of Plasmodium falciparum proliferation (AID 504749); note: nearly all actives have a fitted effect of over 60% in size; note: potency is the fitted concentration of half-maximal effect
Settings: P. falciparum in erythrocytes, SYBR Green DNA, 72 h; series mostly up to 28.7 µM
Records with an inconclusive call do not appear. Calls of active or inactive are those of the source. Calls come from the whole dose curve; as a rule, active = well fitted inhibition curve with a large enough effect; inconclusive = small, poorly fitted or top-dose-only effect; inactive = flat fitted curve, though single readings scatter.

compound	measured.on	Potency
COc1ccc([C@@H]2CNC(=O)C2)cc1OC1CCCC1	DIV14	inactive
COc1ccc2c(c1OC)C(=O)OC2[C@H]1c2c(cc3c(c2OC)OCO3)CCN1C (some centres undefined)	DIV14	inactive
COc1cccc2c1C(=O)c1c(O)c3c(c(O)c1C2=O)C[C@@](O)(C(=O)CO)C[C@@H]3O[C@H]1C[C@H](N)[C@H](OC2CCCCO2)[C@H](C)O1 (some centres undefined)	DIV14	3.79 µM (active)
Nc1nc2c(c(=O)[nH]1)N(C=O)[C@H](CNc1ccc(C(=O)N[C@@H](CCC(=O)O)C(=O)O)cc1)CN2	DIV14	inactive

* * *

Assay: qHTS of pediatric cancer cell lines to identify multiple opportunities for drug repurposing: Primary screen for Rh18 cells (AID 1347102); note: nearly all actives have a fitted effect of over 65% in size
Conditions: Rh18 rhabdomyosarcoma viability, CellTiter-Glo luminescence, 48 h; series mostly up to 46 µM
Records with an inconclusive call do not appear. The source made the active and inactive calls. The call rests on the fitted dose curve; in most records, active means well fitted cell-killing curve with a large enough effect; inconclusive means small, poorly fitted or top-dose-only effect; inactive means flat fitted curve, though single readings scatter.
Write down one outcome, taken from active, inactive

Nc1nc2c(c(=O)[nH]1)N(C=O)[C@H](CNc1ccc(C(=O)N[C@@H](CCC(=O)O)C(=O)O)cc1)CN2 inactive
CC(=O)O[C@H]1C[C@@H]2CC[C@H]3[C@H]4C[C@H]([N+]5(C)CCCCC5)[C@@H](OC(C)=O)[C@@]4(C)CC[C@@H]3[C@@]2(C)C[C@H]1[N+]1(C)CCCCC1 inactive
O=C(Nc1cc2cc[nH]c2cn1)c1ccccc1 active

For the next question, use this compound.
Prompt: Kindly provide the recorded test outcome for the following compound: O=C(NNC(=O)c1ccc(CNS(=O)(=O)c2ccc(F)c(Cl)c2)cc1)c1ccccc1
Completion: inactive

* * *

Experiment: qHTS assay for cell viability of HEK293 cells (AID 743288); note: % is set by controls: 0 for no effect and ±100 for the full control effect; nearly all actives have a fitted effect of over 50% in size
Conditions: ATP luminescence (CellTiter-Glo), 18 h, stronger effect = lower value
Inconclusive results are not listed.
parameter: max response (%)
Just the number in %, nothing appended.

In plain terms, OC[C@@H](O)[C@@H](O)[C@H](O)[C@@H](O)CO has a documented max response of -5.81

* * *

Test: qHTS profiling of the MIPE4 collection as inhibitors of Plasmodium falciparum (DD2) proliferation (Rep 2) (AID 743346)
Conditions: P. falciparum Dd2 in erythrocytes, SYBR Green DNA, 72 h; at 28.5 µM (top of the series) unless noted
parameter: parasite growth, % of control (lower = inhibition) (%)
API: value field is a number in %; no unit string.

Before answering, review these 2 worked examples.
compound	value.reported
NC(=O)N1CCC(CC(=O)N2CCC([C@H]3c4ncc(Br)cc4CCc4cc(Cl)cc(Br)c43)CC2)CC1	13.1
COC[C@H](NC(=O)c1cnc(C)s1)C(=O)N[C@@H](COC)C(=O)N[C@@H](Cc1ccccc1)C(=O)[C@@]1(C)CO1	12.2

Now consider a different compound.
Form: compound = Nc1nc(=O)n([C@H]2CSC(CO)O2)cc1F (some centres undefined) ; parasite growth, % of control (lower = inhibition) = 160

* * *

Assay: qHTS of pediatric cancer cell lines to identify multiple opportunities for drug repurposing: Primary screen for OHS-50 cells (AID 1347103); note: nearly all actives have a fitted effect of over 40% in size
Conditions: OHS-50 osteosarcoma viability, CellTiter-Glo luminescence, 48 h; series mostly up to 57.3 µM
Inconclusive results are not listed. The source made the active and inactive calls. Calls come from the whole dose curve; as a rule, active = well fitted cell-killing curve with a large enough effect; inconclusive = small, poorly fitted or top-dose-only effect; inactive = no such curve, though single readings can be large or run the other way. Residues, ends and D or L forms follow the SMILES beside them. *: point of attachment. Cbz = O=C(OCc1ccccc1)*
One label from this list, please: true (1) for active, false (0) for inactive

Reference set, count: 5
molecule	class
COc1cc2c(cc1O)CCC1C2CC[C@@]2(C)C1CC[C@@H]2O (some centres not stated)	true (1)
C=C(C)[C@@H]1CC[C@]2(C)CC[C@]3(C)[C@H](CC[C@@H]4[C@@]5(C)CC[C@H](O)C(C)(C)[C@H]5CC[C@]43C)[C@@H]12	false (0)
CC(C)C[C@@H](C=O)NC(=O)[C@H](CC(C)C)NC(=O)[C@H](CC(C)C)NC(=O)OCc1ccccc1 (Cbz-Leu-Leu-Leu-aldehyde)	true (1)
C[C@@H](NCc1cc2ccccc2[nH]1)c1cccc2ccccc12	false (0)
COc1ccc(CCC(=O)c2c(O)cc(O[C@@H]3O[C@H](CO)[C@@H](O)[C@H](O)[C@@H]3O[C@@H]3O[C@@H](C)[C@H](O)[C@@H](O)[C@@H]3O)cc2O)cc1O	false (0)

Prompt: Per the records of this test, what outcome belongs to O=C1NC(=O)C(=Cc2ccc3nccc(-c4ccncc4)c3c2)S1 ?
Completion: true (1)

Prompt: # outcome recorded in this test, key = COC(=O)[C@@H]1CC2=CC(=O)CC[C@]2(C)[C@@]23O[C@@H]2C[C@@]2(C)[C@H](CC[C@@]24CCC(=O)O4)[C@@H]13
Completion: false (0)

Prompt: Recorded test call requested for COc1cc(CCc2cc(NC(=O)c3ccc(N4C[C@@H](C)N[C@@H](C)C4)cc3)n[nH]2)cc(OC)c1
Completion: true (1)

Prompt: Record lookup: outcome of this test for C[C@H](NC(=O)[C@@H](O)c1cc(F)cc(F)c1)C(=O)N[C@@H]1C(=O)N(C)c2ccccc2-c2ccccc21 ?
Completion: false (0)

Prompt: Which outcome was entered for the molecule c1coc(CNc2ncnc3nc[nH]c23)c1 in this test?
Completion: false (0)

Prompt: Could you please tell me the result logged for c1cc(N[C@@H]2CCNC2)nc(-c2cnc3ccc(-c4cn[nH]c4)cn23)c1 in this assay?
Completion: true (1)

Prompt: Look up the recorded call for CN[C@@H]1C[C@H]2O[C@@](C)([C@H]1OC)n1c3ccccc3c3c4c(c5c6ccccc6n2c5c31)C(=O)N[C@H]4O in this test.
Completion: true (1)

Prompt: # lookup: test call for COc1cccc2c1C(=O)c1c(O)c3c(c(O)c1C2=O)C[C@@](O)(C(=O)CO)C[C@H]3O[C@H]1C[C@H](N)[C@H](O)[C@H](C)O1
Completion: true (1)

Prompt: Would you mind telling me which call this test gave CN(CC(=O)N(Cc1ccc(C2CCCCC2)cc1)c1ccc(C(=O)O)c(O)c1)S(=O)(=O)c1c(F)c(F)c(F)c(F)c1F ?
Completion: true (1)

Prompt: // outcome(item) with item = COc1cccc2c1C(=O)c1c(O)c3c(c(O)c1C2=O)C[C@@](O)(C(=O)CO)C[C@@H]3O[C@H]1C[C@H](N)[C@@H](O)[C@H](C)O1
Completion: true (1)

Prompt: Please indicate how the test categorized COc1cc(N2CCC(C(N)=O)CC2)ccc1Nc1nc(N)c(Cl)c(Nc2ccccc2S(=O)(=O)C(C)C)n1 .
Completion: true (1)

Prompt: Please indicate how the test categorized CC(=O)O[C@@]12CO[C@H]1C[C@H](O)[C@@]1(C)C(=O)[C@H](O)C3=C(C)[C@@H](OC(=O)C(O)[C@@H](NC(=O)OC(C)(C)C)c4ccccc4)C[C@@](O)([C@@H](OC(=O)c4ccccc4)[C@@H]21)C3(C)C (some centres not stated) .
Completion: true (1)

* * *

Test: qHTS assay for measurement of the activity of small molecule inhibitors on Zika virus induced Caspase-3 activity in human astrocytoma cells (AID 1224859);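 note: plate controls were ZIKV-infected untreated cells for no effect and uninfected cells for full effect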
Details: SNB-19 ZIKV-induced caspase-3/7, luminescence, 6 h; series mostly up to 45.7 µM
Active and inactive are the calls of the source. Calls follow the shape of the dose curve; as a rule, active = well fitted inhibition curve with a large enough effect; inconclusive = small, poorly fitted or top-dose-only effect; inactive = no such curve, though single readings can be large or run the other way.
parameter: outcome

Record excerpt, results attached:
molecule	outcome
O=S(=O)(O)CCSSCCS(=O)(=O)O	inactive
N#CC(=C(O)c1ccc(Cl)cc1Cl)c1nc2cc(Cl)ccc2c(=O)[nH]1	inactive
CCN1CCN(C(=O)N[C@H](C(=O)N[C@@H]2C(=O)N3C(C(=O)O)=C(CSc4nnnn4C)CS[C@@H]23)c2ccc(O)cc2)C(=O)C1=O	inactive
CN(C)c1ccc(C(=O)NCCCCCCC(=O)NO)cc1	inactive

The molecule listed as CN(C)c1ccc2cc(C(=O)N[C@@H](CCCN=C(N)CCl)C(=O)NCc3ccccc3)ccc2c1 shows outcome equal to inactive

Lab note: measured outcome of OC[C@@H](O)[C@@H](O)[C@H](O)[C@@H](O)CO was inactive

// sample CNC(=O)c1ccc(Nc2cc(Nc3ccccc3S(=O)(=O)C(C)C)c3cc[nH]c3n2)nc1 , its outcome was inactive

Looking up COc1ccc(S(=O)(=O)Nc2cc(-c3c(O)ccc4ccccc34)c(O)c3ccccc23)cc1 , I found its outcome recorded as inactive

Measured outcome, N#Cc1c(C2CCNCC2)cc(-c2c(O)cccc2OCC2CC2)nc1N : inactive

Query CC(C)C[C@H](NC(=O)CNC(=O)c1cc(Cl)ccc1Cl)B1OC(=O)CC(CC(=O)O)(C(=O)O)O1 (some centres undefined) yields outcome of inactive

The reported outcome of the molecule CC(C)N1[N]C(=C2C=c3cc(O)ccc3=N2)c2c(N)ncnc21 was inactive

// field: outcome; key: CCc1c(O)cc(O)c(C(=O)c2ccc(OCCN3CCOCC3)c(OC)c2)c1CC(=O)N(CCOC)CCOC ; value = inactive

The measured outcome associated with OCc1ccccc1O[C@@H]1O[C@H](CO)[C@H](O)[C@H](O)[C@H]1O reads inactive

The reported value for CN(C)CCN1C(=O)c2cccc3cc(N)cc(c23)C1=O in terms of outcome is inactive

Measured outcome of C=CC(=O)Nc1ccc2ncnc(Nc3ccc(OCc4cccc(F)c4)c(Cl)c3)c2c1 : inactive

Recorded result, Cn1cc(-c2cnn3c(N)c(Br)c([C@H]4CCCNC4)nc23)cn1 , outcome: inactive

Looking up Cc1cc(C(=O)NOCCO)c(Nc2ccc(I)cc2F)n(C)c1=O , I see its outcome listed as inactive

Per the records, this molecule ( CC1(C)O[C@@H]2C[C@H]3[C@@H]4CCC5=CC(=O)C=C[C@]5(C)[C@@H]4[C@@H](O)C[C@]3(C)[C@]2(C(=O)CO)O1 ) has outcome equal to inactive

Form field outcome, entry COc1cccc2c1C(=O)c1c(O)c3c(c(O)c1C2=O)C[C@@](O)(C(=O)CO)C[C@@H]3O[C@H]1C[C@H](N)[C@H](OC2CCCCO2)[C@H](C)O1 (some centres undefined) : inactive
